Test system: Mythimna separata
Test: Insecticidal activity against fourth-instar larval stage of Mythimna separata (Oriental armyworm) in compound pretreated Zea mays L. Tangyu 10 leaves assessed as mortality at 10 mg/l at 25 +/-1 degC after 2 days
Assay type: functional

compound: CC(=O)OCc1cc(C(=O)Nc2c(C)cc(Cl)cc2C(=O)NC2CC2)n(-c2ncccc2Cl)n1
quantity_unit: %
mortality at 10 µg/mL: 0
--
compound: CC(=O)OCc1cc(C(=O)Nc2c(C)cc(Cl)cc2C(=O)NC(C)(C)C)n(-c2ncccc2Cl)n1
quantity_unit: %
mortality at 10 µg/mL: 100
--
compound: CC(=O)OCc1cc(C(=O)Nc2c(C)cc(Cl)cc2C(=O)NC(C)C)n(-c2ncccc2Cl)n1
quantity_unit: %
mortality at 10 µg/mL: 20
--
compound: CNC(=O)c1cc(C(=O)Nc2c(C)cc(Cl)cc2C(=O)NC(C)(C)C)n(-c2ncccc2Cl)n1
quantity_unit: %
mortality at 10 µg/mL: 100
--
compound: CNC(=O)c1cc(Cl)cc(C)c1NC(=O)c1cc(CN=[N+]=[N-])nn1-c1ncccc1Cl
quantity_unit: %
mortality at 10 µg/mL: 100
--
compound: CNC(=O)c1cc(Cl)cc(C)c1NC(=O)c1cc(COC(C)=O)nn1-c1ncccc1Cl
quantity_unit: %
mortality at 10 µg/mL: 0
--
compound: CNC(=O)c1cc(Cl)cc(C)c1NC(=O)c1cc(Br)nn1-c1ncccc1Cl
quantity_unit: %
mortality at 10 µg/mL: 100
--
compound: CNC(=O)c1cc(Cl)cc(C)c1NC(=O)c1cc(CNC(=O)C(F)(F)F)nn1-c1ncccc1Cl
quantity_unit: %
mortality at 10 µg/mL: 100
--
compound: CC(=O)OCc1cc(C(=O)Nc2c(C)cccc2C(=O)NC(C)C)n(-c2ncccc2Cl)n1
quantity_unit: %
mortality at 10 µg/mL: 0
--
compound: CNC(=O)c1cc(C(=O)Nc2c(C)cc(Cl)cc2C(=O)NC2CC2)n(-c2ncccc2Cl)n1
quantity_unit: %
mortality at 10 µg/mL: 20

Origin of values: ChEMBL document CHEMBL3045285
